# Test system: EKVX NSCLC
# test name: NCI tumour cell line growth inhibition, 48 h
observable: TGI

Take a look at these entries with their results.
COC(=O)C(Cc1cc(OC)c(OC)c(OC)c1)C(=O)OC ... > 320 µM
C/C(=N\NC(=S)N1CCCCC1)c1ccccn1 ... 3.99 µM
COC(=O)CC(NC(=O)OCc1ccccc1)C(C(C)=O)C(=O)OCc1ccccc1 (stereo not drawn) ... > 31.6 µM
C=C1C(=O)O[C@H]2C/C(C)=C/CC[C@@]3(C)O[C@](C)(CC[C@@H]3I)[C@@H](I)C[C@@H]12 ... 14.3 µM
CC(NC(=O)/C(=C/c1ccccc1)NC(=O)c1ccccc1)C(=O)O (stereo not drawn) ... > 100 µM

Entry NNC(=S)N/N=C(\C(=O)Nc1cccc(O)c1)C1C(=O)NC(=S)NC1=O , TGI reported as > 100 µM

Entry COc1ccc(N=N/C(=N/NC(=O)c2ccc(C)cc2)c2ccc(N(CCC#N)CCC#N)cc2OC)cc1 , TGI reported as > 100 µM

Entry CCN(CC)c1cccc2c1/C(=N/O)CCCC2 , TGI reported as > 100 µM

Entry c1ccc2sc(SCCSc3nc4ccccc4s3)nc2c1 , TGI reported as > 100 µM

Entry CC(N)C(Cc1ccc(Cl)cc1)c1ccc(Cl)cc1 (stereo not drawn) , TGI reported as 22.4 µM

Entry CN(CCN1C(=O)c2cc([N+](=O)[O-])cc3cc([N+](=O)[O-])cc(c23)C1=O)CCN1C(=O)c2cc([N+](=O)[O-])cc3cc([N+](=O)[O-])cc(c23)C1=O , TGI reported as > 100 µM

Entry Fc1cccc(COc2ccc(Nc3ncnc4sc(-c5cccs5)cc34)cc2Cl)c1 , TGI reported as > 20.4 µM

Entry COc1ccc(C2CC(c3cccc(Nc4ccnc5cc(Cl)ccc45)c3)=NN2C=O)cc1 (stereo not drawn) , TGI reported as > 100 µM

Entry COc1cc(C2Cc3ncccc3-c3[nH]c(=O)c4cccnc4c32)cc(OC)c1OC (stereo not drawn) , TGI reported as > 100 µM

Entry Cc1cn([C@@H]2C[C@@H]2CO)c(=O)[nH]c1=O , TGI reported as > 100 µM

Entry Cc1ccc(NC(Nc2ccc(C)cc2C)=C(C(Cl)=C(Cl)Cl)[N+](=O)[O-])c(C)c1 , TGI reported as 29.8 µM

Entry O=C1/C(=C\Oc2ccc(F)cc2)N2CCC1CC2 , TGI reported as > 100 µM

Entry CN(C)CCCN1C(=S)N(CCCN(C)C)c2c3ccccc3nc3c([N+](=O)[O-])ccc1c23 , TGI reported as 25.1 µM

====

# System: IGROV1 ovarian
# test name: NCI tumour cell line growth inhibition, 48 h
observable: TGI

Entry C[C@@H](NC1CCCC[C@H]1O)c1ccccc1 (some centres not stated) , TGI reported as > 100 µM

Entry Nc1nccc(-c2c(-c3ccc(F)cc3)ncn2C2CCNCC2)n1 , TGI reported as > 25 µM

Entry CC1=CC(=O)CC(C)(C)C1/C=C/C(C)=C/C=C/C(C)=C/C=C/C=C(C)/C=C/C=C(C)/C=C/C1C(C)=CC(=O)CC1(C)C (configuration not stated) , TGI reported as > 100 µM

Entry Cc1coc2c1C[C@@]1(C)[C@H](CCC[C@@H]1C)[C@H]2O , TGI reported as 65.4 µM

Entry NNC(=S)N/N=C(\C(=O)Nc1cccc(O)c1)C1C(=O)NC(=S)NC1=O , TGI reported as > 100 µM

Entry COc1ccc(C2N(c3ccc(F)cc3)C(=O)N3C(c4ccc(OC)cc4)N(c4ccc(F)cc4)C(=O)N23)cc1 (configuration not stated) , TGI reported as > 100 µM

Entry COC(=O)C(N)CCCC(N)C(=O)NC(C)C(=O)NC(CCC(=O)NCCNCCNc1c2ccccc2nc2cccc([N+](=O)[O-])c12)C(N)=O (configuration not stated) , TGI reported as > 100 µM

Entry O=C(O)CN1C=C(C(=O)c2cc3ccccc3n2S(=O)(=O)c2ccccc2)CCC1 , TGI reported as > 100 µM

Entry CC(C)C1C(=O)N(c2c(F)c(F)c(F)c(F)c2F)C(=S)N1CCS(=O)c1ccccc1 (configuration not stated) , TGI reported as 34.4 µM

Entry c1ccc2c(Cc3[nH]c4ccccc4c3Cc3c[nH]c4ccccc34)c[nH]c2c1 , TGI reported as 13.7 µM

Entry CCN(CC)C(=O)Cc1c(C(=O)N(CC)CC)c(=O)nc2sccn12 , TGI reported as > 100 µM

Entry O=c1c2c(=NCCN3CCCC3)cc3c(=O)n(CCCN4CCOCC4)c(=O)c4c(-c5ccc(CN6CCCC6)cc5)cc(c(O)n1CCCN1CCOCC1)c2c4-3 , TGI reported as 1.47 µM
